- Experimental System: Ba/F3 stable cells (Homo sapiens, UniProt P00533, T790M/L858R, cells depend on it)
- Construct: EC50 Ba/F3-EGFR L858R-T790M; other: Ba/F3-EGFR L858R-T790M cells, 72 h, CCK-8
- Sequence (P00533 whole entry T790M/L858R): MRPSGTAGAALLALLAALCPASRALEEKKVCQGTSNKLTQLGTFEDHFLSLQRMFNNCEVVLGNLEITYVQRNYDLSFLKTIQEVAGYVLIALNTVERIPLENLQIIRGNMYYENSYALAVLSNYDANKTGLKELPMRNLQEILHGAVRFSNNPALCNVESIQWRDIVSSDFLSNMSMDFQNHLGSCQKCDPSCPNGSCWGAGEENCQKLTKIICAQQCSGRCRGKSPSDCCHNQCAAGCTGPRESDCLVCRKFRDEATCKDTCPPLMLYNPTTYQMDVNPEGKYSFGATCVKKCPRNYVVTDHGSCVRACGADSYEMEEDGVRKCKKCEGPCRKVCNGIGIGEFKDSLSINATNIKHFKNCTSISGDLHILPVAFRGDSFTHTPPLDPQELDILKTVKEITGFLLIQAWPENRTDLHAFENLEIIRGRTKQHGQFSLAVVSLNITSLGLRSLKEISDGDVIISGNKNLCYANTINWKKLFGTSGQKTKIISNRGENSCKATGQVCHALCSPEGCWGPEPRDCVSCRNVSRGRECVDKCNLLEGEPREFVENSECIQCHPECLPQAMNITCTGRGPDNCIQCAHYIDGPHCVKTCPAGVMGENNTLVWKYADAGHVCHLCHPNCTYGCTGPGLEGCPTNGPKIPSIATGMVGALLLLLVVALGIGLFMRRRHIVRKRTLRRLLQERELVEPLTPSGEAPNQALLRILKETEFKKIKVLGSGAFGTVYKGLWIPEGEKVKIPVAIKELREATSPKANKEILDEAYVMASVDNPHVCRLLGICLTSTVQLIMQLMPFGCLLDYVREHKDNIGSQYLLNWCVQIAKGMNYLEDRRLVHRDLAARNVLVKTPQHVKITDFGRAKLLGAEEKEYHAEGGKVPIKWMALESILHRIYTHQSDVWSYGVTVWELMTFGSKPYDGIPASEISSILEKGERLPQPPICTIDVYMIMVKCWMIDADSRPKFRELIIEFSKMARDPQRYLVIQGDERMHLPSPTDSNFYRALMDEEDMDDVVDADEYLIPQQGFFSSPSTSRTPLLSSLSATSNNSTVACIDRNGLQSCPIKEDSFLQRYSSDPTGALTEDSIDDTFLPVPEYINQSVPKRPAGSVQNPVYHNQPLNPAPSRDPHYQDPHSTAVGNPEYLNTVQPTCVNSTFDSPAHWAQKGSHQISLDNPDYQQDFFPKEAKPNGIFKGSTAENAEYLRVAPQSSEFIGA
- Test Summary: EC50 assay: Ba/F3 stable cell proliferation (CCK-8, 72 h)
- Condition Details: Ba/F3-EGFR L858R-T790M cells
EC50 overview

{"Compound": "C=CC(=O)N1CCC(Oc2cc3c(NCc4cccc(Br)c4)ncnc3cc2OC)CC1 [Compound 120]", "EC50": "200 to 1000 nM"}
{"Compound": "C=CC(=O)N1CC=C(c2c(OC)cc3ncnc4c3c2N(C)C(=O)N4c2ccc(Cl)c(Cl)c2F)CC1 [Compound 206]", "EC50": "> 1000 nM"}
{"Compound": "C=CC(=O)N[C@H]1C[C@@H](Oc2cc3c(Nc4ccc(Cl)c(Cl)c4F)ncnc3cc2OCC)C1 [Compound 105]", "EC50": "≤ 200 nM"}
{"Compound": "C=CC(=O)N1C2CCCC1CC(Oc1cc3c(Nc4ccc5ccccc5c4)ncnc3cc1OC)C2 (centres unmarked) [Compound 179]", "EC50": "≤ 200 nM"}
{"Compound": "C=CC(=O)N1CCC(Oc2cc3c(NCc4ccc(Cl)c(F)c4)ncnc3cc2OC)CC1 [Compound 113]", "EC50": "> 1000 nM"}
{"Compound": "C#CC(=O)N1CCC(Oc2cc3c(Nc4cccc5ccccc45)ncnc3cc2OC)CC1 [Compound 54]", "EC50": "≤ 200 nM"}
{"Compound": "C=CC(=O)N1CCC(Oc2cc3c(Nc4ccc5ncccc5c4)ncnc3cc2OC)CC1 [Compound 143]", "EC50": "200 to 1000 nM"}
{"Compound": "C=CC(=O)N1CCC(Oc2cc3c(NCc4cc(Cl)ccc4Cl)ncnc3cc2OC)CC1 [Compound 119]", "EC50": "> 1000 nM"}
